Please respond with reported RLU for every item in the list.
# ASSAY_TARGET: human TAS2R1 (Homo sapiens)
# Construct: expressed in transfected cells; host or cells: HEK293T-Gα16gust44
# Sequence (Q9NYW7 whole entry): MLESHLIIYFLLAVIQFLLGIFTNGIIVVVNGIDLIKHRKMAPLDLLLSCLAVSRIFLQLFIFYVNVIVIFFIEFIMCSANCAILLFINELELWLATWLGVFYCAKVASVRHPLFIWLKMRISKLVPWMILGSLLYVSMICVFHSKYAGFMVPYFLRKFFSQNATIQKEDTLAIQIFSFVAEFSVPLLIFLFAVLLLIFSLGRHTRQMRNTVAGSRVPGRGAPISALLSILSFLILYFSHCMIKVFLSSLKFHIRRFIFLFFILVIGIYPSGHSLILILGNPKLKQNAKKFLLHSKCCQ
# TEST_PROTOCOL: Calcium imaging assay (FLIPR), HEK293T-Gα16gust44 cells transfected with human TAS2R1
# Type: cell-based
# CONDITION_INFO: Time 299.547 s
Field: numeric (RLU). Do not append units.

QUERY: Return reported RLU for target or system human TAS2R1 (Homo sapiens), item `C[C@H](CCC(=O)NCCS(=O)(=O)O)[C@H]1CC[C@H]2[C@@H]3[C@H](O)C[C@@H]4C[C@H](O)CC[C@]4(C)[C@H]3C[C@H](O)[C@]12C` .
RESULT: -16.6248

QUERY: // fetch RLU; item: `C[C@H](CCC(=O)O)[C@H]1CC[C@H]2[C@@H]3CC[C@@H]4C[C@H](O)CC[C@]4(C)[C@H]3C[C@H](O)[C@]12C` ; system: human TAS2R1 (Homo sapiens)
RESULT: 145.558

QUERY: Enter recorded RLU with human TAS2R1 (Homo sapiens) for `C[C@H](CCC(=O)NCC(=O)O)[C@H]1CC[C@H]2[C@@H]3[C@H](O)C[C@@H]4C[C@H](O)CC[C@]4(C)[C@H]3C[C@H](O)[C@]12C` here.
RESULT: 40.6004

QUERY: Recall the reported RLU of `C[C@H](CCC(=O)NCCS(=O)(=O)O)[C@H]1CC[C@H]2[C@@H]3CC[C@@H]4C[C@H](O)CC[C@]4(C)[C@H]3CC[C@]12C` when tested on human TAS2R1 (Homo sapiens).
RESULT: -170.989

* * *

Kindly state RLU for each of the entries shown.
# ASSAY_TARGET: human TAS2R1 (Homo sapiens)
# Construct: expressed in transfected cells; host or cells: HEK293T-Gα16gust44
# TEST_PROTOCOL: Calcium imaging assay (FLIPR), HEK293T-Gα16gust44 cells transfected with human TAS2R1
# Format: cell-based
# CONDITION_INFO: Time 90.781 s
Answer format: number, then unit.

QUERY: Consider the compound `C[C@H](CCC(=O)NCC(=O)O)[C@H]1CC[C@H]2[C@@H]3[C@H](O)C[C@@H]4C[C@H](O)CC[C@]4(C)[C@H]3C[C@H](O)[C@]12C` tested on human TAS2R1 (Homo sapiens); state its RLU.
RESULT: 582.427 RLU

QUERY: Name the recorded RLU of `C[C@H](CCC(=O)O)[C@H]1CC[C@H]2[C@@H]3CC[C@@H]4C[C@H](O)CC[C@]4(C)[C@H]3C[C@H](O)[C@]12C` , assay system human TAS2R1 (Homo sapiens).
RESULT: 396.647 RLU

QUERY: Report measured RLU on human TAS2R1 (Homo sapiens); entry: `C[C@H](CCC(=O)NCCS(=O)(=O)O)[C@H]1CC[C@H]2[C@@H]3[C@H](O)C[C@@H]4C[C@H](O)CC[C@]4(C)[C@H]3C[C@H](O)[C@]12C`
RESULT: 417.798 RLU

QUERY: Output reported RLU of the compound `C[C@H](CCC(=O)NCCS(=O)(=O)O)[C@H]1CC[C@H]2[C@@H]3CC[C@@H]4C[C@H](O)CC[C@]4(C)[C@H]3CC[C@]12C` on human TAS2R1 (Homo sapiens).
RESULT: 685.914 RLU
